// provenance: PubChem BioAssay (NCATS)

testSystem: Voltage-gated inwardly rectifying potassium channel KCNH2 (Homo sapiens)
assayInfo: qHTS Assay for Small Molecule Inhibitors of the Human hERG Channel Activity (AID 588834);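 note: lower thallium flux fluorescence means stronger hERG block; nearly all actives have a fitted effect of over 50% in size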
conditionSet: U2OS BacMam hERG, FluxOR thallium flux fluorescence; series mostly up to 46.1 µM
Inconclusive results are not listed. Activity calls are given as the source filed them. Calls come from the whole dose curve; as a rule, active = well fitted inhibition curve with a large enough effect; inconclusive = small, poorly fitted or top-dose-only effect; inactive = flat fitted curve, though single readings scatter.
Classes used: 1 for active, -1 for inactive

compound: O=C(O)CCC(=O)N1CCCC1C(=O)O (stereo not given)
assignedCategory: -1

compound: NC1CCN(O)C1=O (stereo not given)
assignedCategory: -1

compound: Cn1c(=O)c2[nH]c(-c3ccc(S(=O)(=O)O)cc3)nc2n(C)c1=O
assignedCategory: -1

compound: O=C(O)/C(=C/c1c(C(=O)O)[nH]c2cc(Cl)cc(Cl)c12)c1ccccc1
assignedCategory: -1

compound: CSC(=N)N
assignedCategory: -1

compound: C=CCN1CCc2c(cc(O)c(O)c2Br)[C@@H](c2ccccc2)C1
assignedCategory: 1

compound: C=CC1(C)CC(=O)C2(O)C(C)(O1)C(OC(C)=O)C(O)C1C(C)(C)CCC(O)C12C (stereo not given)
assignedCategory: -1

compound: CN(C)C(=O)/N=N/C(=O)N(C)C
assignedCategory: -1

compound: CC[N+](CC)(CC)CC(=O)Nc1c(C)cccc1C
assignedCategory: -1

compound: N[C@@H](Cc1c[nH]c2ccccc12)C(=O)O
assignedCategory: -1

compound: Nc1ccc2c3c(cccc13)C(=O)NC2=O
assignedCategory: 1

compound: CC(C)(C)NCC(O)COc1cccc2[nH]c(=O)[nH]c12 (stereo not given)
assignedCategory: -1

compound: N=C(N)SCCN
assignedCategory: -1

compound: OC[C@H]1NC[C@@H](O)[C@@H]1O
assignedCategory: -1

compound: CCN1C(=O)C=CC1=O
assignedCategory: -1

---

testSystem: Voltage-gated inwardly rectifying potassium channel KCNH2 (Homo sapiens) (UniProt Q12809)
Sequence (Q12809 whole entry, looked up): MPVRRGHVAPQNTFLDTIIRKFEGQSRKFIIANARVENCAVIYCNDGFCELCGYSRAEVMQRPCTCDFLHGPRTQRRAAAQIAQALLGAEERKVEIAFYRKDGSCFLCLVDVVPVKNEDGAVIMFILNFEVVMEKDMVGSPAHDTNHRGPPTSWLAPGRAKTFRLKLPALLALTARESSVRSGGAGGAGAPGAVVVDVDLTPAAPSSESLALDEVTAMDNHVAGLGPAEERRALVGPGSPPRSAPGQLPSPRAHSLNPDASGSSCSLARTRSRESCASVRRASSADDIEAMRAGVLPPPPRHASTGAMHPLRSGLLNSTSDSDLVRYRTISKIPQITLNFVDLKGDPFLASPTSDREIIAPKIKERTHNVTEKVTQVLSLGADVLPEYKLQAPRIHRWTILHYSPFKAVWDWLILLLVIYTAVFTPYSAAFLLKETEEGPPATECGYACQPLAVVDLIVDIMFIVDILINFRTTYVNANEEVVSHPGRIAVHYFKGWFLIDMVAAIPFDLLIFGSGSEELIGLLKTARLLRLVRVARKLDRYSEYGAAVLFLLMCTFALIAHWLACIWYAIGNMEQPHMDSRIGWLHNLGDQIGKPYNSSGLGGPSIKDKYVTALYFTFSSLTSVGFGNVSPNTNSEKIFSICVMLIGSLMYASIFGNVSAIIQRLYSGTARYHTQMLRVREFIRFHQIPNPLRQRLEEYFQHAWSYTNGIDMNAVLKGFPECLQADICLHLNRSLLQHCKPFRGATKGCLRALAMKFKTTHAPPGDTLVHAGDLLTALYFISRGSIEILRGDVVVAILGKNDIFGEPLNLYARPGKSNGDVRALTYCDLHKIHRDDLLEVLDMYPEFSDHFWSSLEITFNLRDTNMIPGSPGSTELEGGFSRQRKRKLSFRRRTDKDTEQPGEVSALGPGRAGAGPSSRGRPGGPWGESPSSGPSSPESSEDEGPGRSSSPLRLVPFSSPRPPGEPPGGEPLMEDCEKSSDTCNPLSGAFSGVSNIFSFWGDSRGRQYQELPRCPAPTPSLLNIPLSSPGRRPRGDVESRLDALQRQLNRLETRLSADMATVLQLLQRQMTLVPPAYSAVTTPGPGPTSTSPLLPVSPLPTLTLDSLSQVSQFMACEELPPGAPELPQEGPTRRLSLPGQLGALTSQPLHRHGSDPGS
assayInfo: qHTS Assay for Small Molecule Inhibitors of the Human hERG Channel Activity (AID 588834);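 note: lower thallium flux fluorescence means stronger hERG block; nearly all actives have a fitted effect of over 50% in size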
conditionSet: U2OS BacMam hERG, FluxOR thallium flux fluorescence; series mostly up to 46.1 µM
Records with an inconclusive call do not appear. Activity calls are given as the source filed them. Calls come from the whole dose curve; as a rule, active = well fitted inhibition curve with a large enough effect; inconclusive = small, poorly fitted or top-dose-only effect; inactive = flat fitted curve, though single readings scatter.
Outcomes: class 1 = active, class 0 = inactive

compound: O=C(O)C1=CCCNC1
assignedCategory: class 0

compound: OC[C@H]1O[C@@H](n2cnc3cncnc32)[C@H](O)[C@@H]1O
assignedCategory: class 0

compound: COC(=O)C(N)Cc1ccc(Cl)cc1 (stereo not drawn)
assignedCategory: class 0

compound: CCOC(=O)C12CC1/C(=N/O)c1ccccc1O2 (stereo not drawn)
assignedCategory: class 0

compound: CC(=O)C(C)=O
assignedCategory: class 0

compound: CNC(=O)c1cc2c(cn1)[nH]c1ccccc12
assignedCategory: class 0

compound: CC1CCN=C(N)S1 (stereo not drawn)
assignedCategory: class 0

compound: CC(=O)NCCc1c[nH]c2ccc(O)cc12
assignedCategory: class 0

compound: Oc1ccc(Cn2cc[nH]c2=S)cc1
assignedCategory: class 0

compound: CCCC(=O)NCCc1c2n(c3ccc(OC)cc13)CCCc1ccccc1-2
assignedCategory: class 0

compound: Clc1nccc2c1ccc1ccccc12
assignedCategory: class 0

compound: O=C1C2C=CC=CC2=NC(=S)N1CCN1CCC(=C(c2ccc(F)cc2)c2ccc(F)cc2)CC1 (stereo not drawn)
assignedCategory: class 1

compound: CC(N)(Cc1ccc(O)c(O)c1)C(=O)O (stereo not drawn)
assignedCategory: class 0

---

assayInfo: qHTS for inhibitors of adenylyl cyclases using a fission yeast platform: a pilot screen against the NCATS LOPAC library (AID 1347410);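 note: plate controls were DMSO vehicle for no effect and DPI positive control for full effect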
conditionSet: S. pombe CHP2027, fbp1-GFP fluorescence, 18 h, yeast expressing mammalian AC9 and human GNAS; series mostly up to 57.5 µM
Activity calls are given as the source filed them. The call rests on the fitted dose curve; in most records, active means well fitted curve in the direction sought with a large enough effect; inconclusive means small, poorly fitted or top-dose-only effect, or effect the other way, or another doubt; inactive means no such curve, though single readings can be large or run the other way.
measureName: outcome

compound: CCCCCCCCCCCCCCSCC(=O)O
measureName: outcome
valueMeasured: inactive
--
compound: Oc1ccc(Cn2cc[nH]c2=S)cc1
measureName: outcome
valueMeasured: inactive
--
compound: N#C/C(=C\c1ccc(O)c(O)c1)C(=O)NCCc1ccccc1
measureName: outcome
valueMeasured: inactive
--
compound: Cc1cc(Cn2cnc3c2C[C@@H](C(=O)O)N(C(=O)C(c2ccccc2)c2ccccc2)C3)ccc1N
measureName: outcome
valueMeasured: inactive
--
compound: CN(C)CCCc1cc(C(=O)Nc2ccc(-c3ccncc3)cc2)ccc1O
measureName: outcome
valueMeasured: inactive
--
compound: O=C(c1ccc2c(c1)OCCO2)N1CCCCC1
measureName: outcome
valueMeasured: inactive
--
compound: c1ccc(C(NCc2cccnc2)(c2ccccc2)c2ccccc2)cc1
measureName: outcome
valueMeasured: inactive
--
compound: Oc1ccc(/C=C/c2ccc(/C=C/c3ccc(O)cc3)c(Br)c2)cc1
measureName: outcome
valueMeasured: inactive
--
compound: CCCCCCC/C=C\CCCCCCCCC(=O)O
measureName: outcome
valueMeasured: inactive
--
compound: Brc1c(Br)c(Br)c2[nH]cnc2c1Br
measureName: outcome
valueMeasured: inactive
--
compound: CCCCCCCCCCCCCCC[C@H](O)[C@H](N)CO
measureName: outcome
valueMeasured: inactive
--
compound: COC1(C2=NCCN2)COc2ccccc2O1 (configuration not stated)
measureName: outcome
valueMeasured: inactive

---

assayInfo: Validation of Assay for Modulators of Lamin A Splicing (AID 1459);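 note: cells exposed to compound for two days before reading; 0% is about no effect; ratio rise marks activators and ratio drop marks inhibitors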
conditionSet: Lamin A splicing dual RFP/GFP fluorescence reporter; series mostly up to 9.22 µM
Inconclusive results are not listed. The source made the active and inactive calls. The call rests on the fitted dose curve; in most records, active means well fitted curve in the direction sought with a large enough effect in the signal ratio; inconclusive means small, poorly fitted or top-dose-only effect, or effect the other way, or a change in a side signal; inactive means no such curve, though single readings can be large or run the other way; the % refers to the signal ratio.
measureName: outcome

compound: NCCCCN=C(N)N
valueMeasured: inactive
//
compound: OC[C@H]1NC[C@@H](O)[C@@H]1O
valueMeasured: inactive
//
compound: COc1ccccc1N1CCN(CCCCN2C(=O)c3ccccc3C2=O)CC1
valueMeasured: inactive
//
compound: C[C@H](O)C(=O)C1=Nc2c(nc(N)[nH]c2=O)NC1
valueMeasured: inactive
//
compound: O=C(O)C1CCCNC1 (centres undefined)
valueMeasured: inactive
//
compound: CC(N)(Cc1ccc(O)c(O)c1)C(=O)O (centres undefined)
valueMeasured: inactive
//
compound: NC(N)=NC(N)=Nc1cccc(Cl)c1
valueMeasured: inactive
//
compound: O=C(O)CCC(=O)N1CCCC1C(=O)O (centres undefined)
valueMeasured: inactive
//
compound: O=C(O)/C=C/c1ccc(O)c(O)c1
valueMeasured: inactive
//
compound: CCCn1c(=O)c2[nH]c(-c3ccc(S(=O)(=O)O)cc3)nc2n(CCC)c1=O
valueMeasured: inactive
//
compound: CC(=O)/C(C)=N/O
valueMeasured: inactive
//
compound: CC1C(=O)N(C)C(=O)c2nc[nH]c21 (centres undefined)
valueMeasured: inactive
//
compound: O=C(OCCN1CCOCC1)C1(c2ccccc2)CCCCC1
valueMeasured: inactive
//
compound: CNC(=O)c1cc2c(cn1)[nH]c1ccccc12
valueMeasured: inactive
//
compound: CCCCCCN(CCCCCC)C(=O)Cc1c(-c2ccc(F)cc2)[nH]c2ccccc12
valueMeasured: inactive
//
compound: COc1cccc(OC)c1OCCNCC1CSc2ccccc2O1 (centres undefined)
valueMeasured: inactive
//
compound: NCCCCN
valueMeasured: inactive
//
compound: NCCC1CCCC(CCN)N1 (centres undefined)
valueMeasured: inactive
//
compound: C=CCN1CCc2c(cc(O)c(O)c2Br)[C@@H](c2ccccc2)C1
valueMeasured: inactive
//
compound: NCC(O)(CS(=O)(=O)O)c1ccc(Cl)cc1 (centres undefined)
valueMeasured: inactive
//
compound: N[C@H](C(=O)O)[C@H]1C[C@@H]1C(=O)O
valueMeasured: inactive
//
compound: CC(C)C[C@H](NC(=O)[C@H](O)[C@H](N)Cc1ccccc1)C(=O)O
valueMeasured: inactive
//
compound: COC(=O)C(C)(N)Cc1ccc(O)cc1 (centres undefined)
valueMeasured: inactive
//
compound: CCSC(=N)N
valueMeasured: inactive
//
compound: Cc1cccc(C)c1OCC(N)C(C)C (centres undefined)
valueMeasured: inactive
//
compound: Cc1cc2c(cc1Cl)N(C(=O)Nc1ccnc3ccccc13)CC2
valueMeasured: inactive
//
compound: CC(N)=O
valueMeasured: inactive
//
compound: COc1ccccc1N1CCN(CCCCNC(=O)c2ccc3ccccc3c2)CC1
valueMeasured: inactive
//
compound: CCCCCC[C@@H]([C@@H](C)O)n1cnc2c(N)ncnc21
valueMeasured: inactive
//
compound: CN1CCCC1CCOC(C)(c1ccccc1)c1ccc(Cl)cc1 (centres undefined)
valueMeasured: inactive
//
compound: CCN(CC)CCOC(=O)c1cc(Cl)c(N)cc1OC
valueMeasured: inactive
//
compound: Oc1cc(O)c2c(c1)O[C@H](c1ccc(O)c(O)c1)[C@@H](O)C2
valueMeasured: inactive
//
compound: N[C@@H](CS(=O)O)C(=O)O
valueMeasured: inactive
//
compound: CN(C)C(=O)/N=N/C(=O)N(C)C
valueMeasured: inactive
//
compound: COc1cc(C(O)C(=O)O)ccc1O (centres undefined)
valueMeasured: inactive
//
compound: c1ccc2nc(C3=NCCN3)ccc2c1
valueMeasured: inactive
//
compound: CNc1cc(NS(=O)(=O)c2ccc(N)cc2)nc(NC)n1
valueMeasured: inactive
//
compound: [Li+]
valueMeasured: inactive
//
compound: Cc1nc(N=Nc2cc(S(=O)(=O)O)c3cc([N+](=O)[O-])cc(S(=O)(=O)O)c3c2)c(COP(=O)(O)O)c(C=O)c1O
valueMeasured: inactive
//
compound: O=C(O)C1=CC(=C(c2ccc(O)c(C(=O)O)c2)c2ccc(O)c(C(=O)O)c2)C=CC1=O
valueMeasured: inactive
//
compound: O=[N+]([O-])c1cccc2cn[nH]c12
valueMeasured: inactive
//
compound: CN[C@H](CC(=O)O)C(=O)O
valueMeasured: inactive
//
compound: CN1CCN(c2nc3cc(C(F)(F)F)ccc3n3cccc23)CC1
valueMeasured: inactive
//
compound: Cn1c(=O)c2[nH]c(C3CCCC3)nc2n(C)c1=O
valueMeasured: inactive
//
compound: Nc1nc2[nH]c(=O)cnc2c(=O)[nH]1
valueMeasured: inactive
//
compound: O=C(O)Cc1ccc(O)c(O)c1
valueMeasured: inactive
//
compound: O=[N+]([O-])c1cccc2c(Br)[nH]nc12
valueMeasured: inactive
//
compound: CCCCCCC/C=C\CCCCCCCCC(=O)O
valueMeasured: inactive
//
compound: CC[N+](CC)(CC)CC(=O)Nc1c(C)cccc1C
valueMeasured: inactive
//
compound: CO/N=C(\C(=O)N[C@@H]1C(=O)N2C(C(=O)O)=C(CSc3nc(=O)c(O)nn3C)CSC12)c1csc(N)n1 (some centres undefined)
valueMeasured: inactive
//
compound: NC1CCN(O)C1=O (centres undefined)
valueMeasured: inactive
//
compound: Cn1cc(C(=O)OCC2CCN(CCNS(C)(=O)=O)CC2)c2ccccc21
valueMeasured: inactive
//
compound: N[C@H]1CONC1=O
valueMeasured: inactive
//
compound: CC(N)=NCCCC[C@@H](N)C(=O)O
valueMeasured: inactive
